The measurements presented in this section are drawn from patent US8592597B2.

# Test system: HepG2
# test: ATP content test
# Format: cell-based, Human
# reported_conditions: HepG2, 100 μM, culture for one day, relative value to control (without drug)
Counter-ions that a name gives are not always drawn.
Could you please report measured ATP content (%, 100 μM) for the items listed next?
Answers are plain numbers, in %.

Please look at the items below and tell me ATP content (%, 100 μM) for each one, in order.
1. CNCc1cn(S(=O)(=O)c2ccc(C)nc2)c(-c2cccnc2F)c1F
2. CNCc1cn(S(=O)(=O)c2ccc(F)cn2)c(-c2cccnc2F)c1F [Example 3, hydrochloride]
3. CNCc1cn(S(=O)(=O)c2cc(C)ccn2)c(-c2cccnc2F)c1F [Example 2, hydrochloride]
4. CNCc1cn(S(=O)(=O)c2cncc(F)c2)c(-c2cccnc2F)c1F [Example 5, hydrochloride]
5. CNCc1cn(S(=O)(=O)c2ccc(OC)cn2)c(-c2cccnc2F)c1F [Example 10, hydrochloride]
6. CNCc1cn(S(=O)(=O)c2cc(OC)ccn2)c(-c2cccnc2F)c1F [Example 4, hydrochloride]

1: 76.7; 2: 86.5; 3: 85.5; 4: 88.9; 5: 80.0; 6: 84.5

====

# target_or_test_system: proton, potassium-adenosine triphosphatase (H+/K+-ATPase) (Sus scrofa, UniProt P19156)
# Construct: a gastric mucous membrane microsomal fraction was prepared from the stomach of swine
# Sequence (P19156 2-1034 limits assumed): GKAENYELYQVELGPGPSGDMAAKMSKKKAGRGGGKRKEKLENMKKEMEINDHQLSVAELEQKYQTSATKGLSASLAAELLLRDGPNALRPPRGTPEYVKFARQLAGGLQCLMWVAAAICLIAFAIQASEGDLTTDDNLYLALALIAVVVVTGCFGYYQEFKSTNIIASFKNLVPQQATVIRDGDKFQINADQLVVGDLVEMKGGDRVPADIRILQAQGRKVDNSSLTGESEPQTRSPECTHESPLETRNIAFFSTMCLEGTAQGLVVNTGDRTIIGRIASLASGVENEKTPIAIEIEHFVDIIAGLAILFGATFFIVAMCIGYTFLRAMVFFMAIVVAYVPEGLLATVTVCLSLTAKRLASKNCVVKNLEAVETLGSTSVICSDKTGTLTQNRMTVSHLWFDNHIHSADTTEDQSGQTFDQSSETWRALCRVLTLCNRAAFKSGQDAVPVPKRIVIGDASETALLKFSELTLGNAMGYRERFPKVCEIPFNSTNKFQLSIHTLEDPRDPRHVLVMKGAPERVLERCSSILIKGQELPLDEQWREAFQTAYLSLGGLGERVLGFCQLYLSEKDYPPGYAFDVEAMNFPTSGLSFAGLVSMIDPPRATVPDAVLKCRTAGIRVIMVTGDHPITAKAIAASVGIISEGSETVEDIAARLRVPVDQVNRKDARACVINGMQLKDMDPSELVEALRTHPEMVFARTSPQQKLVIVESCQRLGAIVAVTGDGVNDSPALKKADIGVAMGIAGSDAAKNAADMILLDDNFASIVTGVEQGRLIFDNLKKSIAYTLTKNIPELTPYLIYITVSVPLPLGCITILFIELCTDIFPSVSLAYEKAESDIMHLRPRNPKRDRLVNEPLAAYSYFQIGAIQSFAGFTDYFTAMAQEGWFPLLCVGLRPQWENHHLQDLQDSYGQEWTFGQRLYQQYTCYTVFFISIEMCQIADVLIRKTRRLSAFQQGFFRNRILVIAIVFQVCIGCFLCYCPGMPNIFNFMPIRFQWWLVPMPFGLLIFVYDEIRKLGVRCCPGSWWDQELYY
# Sequence (P18434 whole entry partner): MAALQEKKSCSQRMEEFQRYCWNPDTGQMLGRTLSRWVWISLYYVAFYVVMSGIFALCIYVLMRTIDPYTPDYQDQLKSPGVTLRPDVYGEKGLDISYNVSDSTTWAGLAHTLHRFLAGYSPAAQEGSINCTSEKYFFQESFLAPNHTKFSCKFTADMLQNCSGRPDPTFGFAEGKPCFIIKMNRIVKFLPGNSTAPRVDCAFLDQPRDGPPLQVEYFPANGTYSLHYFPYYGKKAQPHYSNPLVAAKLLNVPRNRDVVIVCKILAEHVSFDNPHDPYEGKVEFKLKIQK
# test: Proton potassium-adenosine triphosphatase (H+,K+-ATPase) inhibitory activity test
# reported_conditions: swine gastric mucous membrane microsomal fraction, pH 6.5, 37° C.
Where a name gives a salt, the structure may show the parent alone.
Give measured pIC50 for each item. Keep answers brief.
One number for each entry, as −log10 of the molar value.

Worked set:
- molecule: "CNCc1cn(S(=O)(=O)c2ccc(C)nc2)c(-c2cccnc2F)c1F [Example 8]"
  pIC50: 6.74
- molecule: "CNCc1cn(S(=O)(=O)c2ccc(F)cn2)c(-c2cccnc2F)c1F [Example 3, hydrochloride]"
  pIC50: 7.00
- molecule: "CNCc1cn(S(=O)(=O)c2cncc(F)c2)c(-c2cccnc2F)c1F [Example 26, succinate]"
  pIC50: 6.89
- molecule: "CNCc1cn(S(=O)(=O)c2cc(OC)ccn2)c(-c2cccnc2F)c1F [Example 4, hydrochloride]"
  pIC50: 6.85
- molecule: "CNCc1cn(S(=O)(=O)c2cncc(F)c2)c(-c2cccnc2F)c1F [Example 25]"
  pIC50: 6.70
- molecule: "CNCc1cn(S(=O)(=O)c2cncc(F)c2)c(-c2cccnc2F)c1F [Example 27, L-tartrate]"
  pIC50: 6.80

What pIC50 appears in the records for this molecule with proton, potassium-adenosine triphosphatase (H+/K+-ATPase) (Sus scrofa, UniProt P19156)? CNCc1cn(S(=O)(=O)c2ccc(OC)cn2)c(-c2cccnc2F)c1F [Example 10, hydrochloride]
6.55

====

# target_or_test_system: proton, potassium-adenosine triphosphatase (H+/K+-ATPase) (Sus scrofa)
# Construct: a gastric mucous membrane microsomal fraction was prepared from the stomach of swine
# test: Proton potassium-adenosine triphosphatase (H+,K+-ATPase) inhibitory activity test
# reported_conditions: swine gastric mucous membrane microsomal fraction, pH 6.5, 37° C.
Where a name gives a salt, the structure may show the parent alone.
parameter_measured: IC50 (nM)
Give bare numbers, in nM.

Use the examples below as a reference point.
- molecule: "CNCc1cn(S(=O)(=O)c2cc(C)ccn2)c(-c2cccnc2F)c1F [Example 24, succinate]"
  result: 140
- molecule: "CNCc1cn(S(=O)(=O)c2cc(C)ccn2)c(-c2cccnc2F)c1F [Example 2, hydrochloride]"
  result: 100
- molecule: "CNCc1cn(S(=O)(=O)c2cc(C)ccn2)c(-c2cccnc2F)c1F [Example 23, fumarate]"
  result: 83

Please find the next molecule below.
Given the entry CNCc1cn(S(=O)(=O)c2cncc(F)c2)c(-c2cccnc2F)c1F [Example 5, hydrochloride] , what IC50 was observed with proton, potassium-adenosine triphosphatase (H+/K+-ATPase) (Sus scrofa)?
200
